Data provenance: patent US12624112

# ASSAYED SYSTEM: Human ST2-fc (human) (UniProt Q01638)
# ASSAY EXPLANATION: competition ELISA, coated ST2-fc, competitor IL33-his
ENDPOINT NAME: IC50 (µg/mL)
Use µg/mL as the unit, but write only the number.

Answered cases to consult:
5888-116-H0L1 (antibody, human IgG4 S228P, kappa, V domains shown, Humanized antibody) VH: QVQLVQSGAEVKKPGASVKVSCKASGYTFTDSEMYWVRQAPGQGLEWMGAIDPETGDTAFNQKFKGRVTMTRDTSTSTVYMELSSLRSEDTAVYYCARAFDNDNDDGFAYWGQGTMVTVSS VL: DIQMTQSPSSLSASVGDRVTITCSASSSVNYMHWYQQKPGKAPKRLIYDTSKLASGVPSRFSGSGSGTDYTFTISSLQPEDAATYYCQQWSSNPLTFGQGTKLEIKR = 0.0204
5888-379H1+L2 (antibody, V domains shown, murine antibody) VH: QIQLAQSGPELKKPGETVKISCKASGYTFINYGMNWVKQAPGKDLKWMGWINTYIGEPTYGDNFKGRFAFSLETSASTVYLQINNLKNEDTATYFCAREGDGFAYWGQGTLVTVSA VL: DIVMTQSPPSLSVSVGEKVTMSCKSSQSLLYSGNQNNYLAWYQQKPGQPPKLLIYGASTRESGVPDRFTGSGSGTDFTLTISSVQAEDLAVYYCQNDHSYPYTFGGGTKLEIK = 0.83

// lookup IC50 for 5888-116H1+L1 (antibody, V domains shown, murine antibody) VH: QVQLQQSGAELVRPGASVTLSCKASGYTFTDSEMYWVRLTPVHGLEWIGAIDPETGDTAFNQKFKGKATLTADKSSSTAYMELRSLTSEDSVVYYCTRAFDNDNDDGFAYWGQGTLVTVSA VL: QIVMTQSPAIMSASPGEKVTMTCSASSSVNYMHWYQQKSGTSPKRWIYDTSKLASGVPARFSGSGSGTSYSLTISSMEAEDAATYYCQQWSSNPLTFGAGTKLELK
0.9
